These measurements were taken from patent US10988477B2.

Biological target: intracellular GCN2 (phosphorylation of the GCN2 substrate eIF2α) (Homo sapiens)
Sequence (Q9P2K8 whole entry): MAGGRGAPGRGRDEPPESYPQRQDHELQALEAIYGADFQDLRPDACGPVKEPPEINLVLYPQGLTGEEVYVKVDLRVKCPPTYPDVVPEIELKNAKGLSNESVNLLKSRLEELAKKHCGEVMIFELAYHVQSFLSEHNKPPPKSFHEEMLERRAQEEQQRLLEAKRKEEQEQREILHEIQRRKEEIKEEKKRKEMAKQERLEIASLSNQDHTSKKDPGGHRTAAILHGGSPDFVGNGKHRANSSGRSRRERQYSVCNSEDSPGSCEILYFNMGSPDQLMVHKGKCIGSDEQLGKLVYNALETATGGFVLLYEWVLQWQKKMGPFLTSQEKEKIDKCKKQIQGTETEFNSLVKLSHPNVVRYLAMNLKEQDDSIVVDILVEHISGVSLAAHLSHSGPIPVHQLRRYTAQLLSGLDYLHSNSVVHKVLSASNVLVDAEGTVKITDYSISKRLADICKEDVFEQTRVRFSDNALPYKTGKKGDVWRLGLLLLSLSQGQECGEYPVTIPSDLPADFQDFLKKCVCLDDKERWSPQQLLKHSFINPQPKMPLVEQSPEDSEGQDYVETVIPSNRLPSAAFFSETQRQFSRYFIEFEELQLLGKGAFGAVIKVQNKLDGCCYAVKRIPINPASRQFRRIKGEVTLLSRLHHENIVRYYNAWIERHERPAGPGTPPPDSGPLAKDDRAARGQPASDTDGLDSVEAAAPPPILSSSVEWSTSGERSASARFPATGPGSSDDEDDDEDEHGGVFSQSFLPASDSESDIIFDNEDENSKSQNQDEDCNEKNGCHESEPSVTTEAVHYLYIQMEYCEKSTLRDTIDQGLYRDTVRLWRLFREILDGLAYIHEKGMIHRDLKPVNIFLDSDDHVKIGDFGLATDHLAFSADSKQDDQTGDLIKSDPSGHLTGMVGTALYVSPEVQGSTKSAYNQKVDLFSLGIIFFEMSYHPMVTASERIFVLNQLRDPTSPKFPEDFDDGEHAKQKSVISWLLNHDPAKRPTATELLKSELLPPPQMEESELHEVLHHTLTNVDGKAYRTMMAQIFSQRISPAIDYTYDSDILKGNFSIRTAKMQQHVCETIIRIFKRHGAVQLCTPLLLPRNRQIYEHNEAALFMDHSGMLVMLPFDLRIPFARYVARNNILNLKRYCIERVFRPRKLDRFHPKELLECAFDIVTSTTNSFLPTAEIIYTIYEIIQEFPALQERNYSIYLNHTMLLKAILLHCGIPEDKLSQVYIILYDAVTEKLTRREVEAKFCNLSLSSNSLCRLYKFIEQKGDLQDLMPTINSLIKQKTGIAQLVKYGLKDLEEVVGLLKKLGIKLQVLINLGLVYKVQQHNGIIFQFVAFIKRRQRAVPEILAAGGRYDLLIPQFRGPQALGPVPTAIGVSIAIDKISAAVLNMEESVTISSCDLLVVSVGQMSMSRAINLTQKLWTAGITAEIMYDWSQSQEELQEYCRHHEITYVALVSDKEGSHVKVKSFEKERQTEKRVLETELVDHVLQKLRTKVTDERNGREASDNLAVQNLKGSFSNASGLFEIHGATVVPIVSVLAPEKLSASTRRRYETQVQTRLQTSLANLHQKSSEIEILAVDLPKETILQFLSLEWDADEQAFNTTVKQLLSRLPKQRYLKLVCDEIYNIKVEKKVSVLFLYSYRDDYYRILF
Experiment: GCN2 cellular inhibition assay (AlphaScreen SureFire P-eIF2α Ser51, borrelidin-treated U2OS cells)
Format: cell-based
Conditions: compounds of Formula II; biomarker assay, phosphorylated eIF2α Ser51 in borrelidin-treated U2OS cells
measured_attribute: IC50

-- ask Given the entry FC(F)c1ccc2ncc(-c3cc(N4CCOCC45CC5)ncn3)n2n1 [II-400] , what IC50 was observed with intracellular GCN2 (phosphorylation of the GCN2 substrate eIF2α) (Homo sapiens)?
-- reply > 5000 nM

-- ask Given the entry CS(=O)(=O)NCC1CCCN(c2cc(-c3cnc4ccc(C(F)F)nn34)c(Cl)cn2)C1 (stereo not shown) [II-730] , what IC50 was observed with intracellular GCN2 (phosphorylation of the GCN2 substrate eIF2α) (Homo sapiens)?
-- reply 500 to 5000 nM

-- ask Given the entry CC1CN(c2cc(-c3cnc4ccc(C(F)F)nn34)ncn2)CC(CNS(C)(=O)=O)O1 (stereo not shown) [II-33] , what IC50 was observed with intracellular GCN2 (phosphorylation of the GCN2 substrate eIF2α) (Homo sapiens)?
-- reply < 500 nM

-- ask Given the entry CC1C(CNS(C)(=O)=O)CC(F)(F)CN1c1cc(-c2cnc3ccc(C(F)F)nn23)ncn1 (single isomer, unassigned) [II-360] , what IC50 was observed with intracellular GCN2 (phosphorylation of the GCN2 substrate eIF2α) (Homo sapiens)?
-- reply 500 to 5000 nM
